Molecular target: Glutamate NMDA receptor; Grin1/Grin2a (Rattus norvegicus, UniProt P35439+Q00959)
Assay: Inhibition of rat recombinant GluN1/2A expressed in Xenopus oocytes assessed as inhibition of glutamate/glycine-evoked channel current at holding potential of -80 mV by two-electrode voltage clamp technique
quantity_measured: IC50 (nM)
Give bare numbers, in nM.

item_smiles: CN(CCCC[C@H](N)C(=O)NCCCCCNC(=O)[C@H](CC(N)=O)NC(=O)Cc1c[nH]c2cccc(O)c12)CCCNC(=O)[C@@H](N)CCCNC(=N)N
measure_unit: nM
IC50: 1630
--
item_smiles: NCCCNCCCCNCCCNCCCN(O)CCCNC(=O)Cc1c[nH]c2ccccc12
measure_unit: nM
IC50: 12

Give me IC50 for each of these compounds, listed below.
1. N=C(N)NCCC[C@H](N)C(=O)NCCCNCCCC[C@H](N)C(=O)NCCCCCNC(=O)[C@H](CC(N)=O)NC(=O)Cc1c[nH]c2cccc(O)c12
2. C[N+](C)(CCCC[C@H](N)C(=O)NCCCCCNC(=O)[C@H](CC(N)=O)NC(=O)Cc1c[nH]c2cccc(O)c12)CCCNC(=O)[C@@H](N)CCCNC(=N)N

Result:
1. 387
2. 3850

---

Target: Glutamate receptor 1 (Rattus norvegicus, UniProt P19490)
Sequence (P19490 whole entry): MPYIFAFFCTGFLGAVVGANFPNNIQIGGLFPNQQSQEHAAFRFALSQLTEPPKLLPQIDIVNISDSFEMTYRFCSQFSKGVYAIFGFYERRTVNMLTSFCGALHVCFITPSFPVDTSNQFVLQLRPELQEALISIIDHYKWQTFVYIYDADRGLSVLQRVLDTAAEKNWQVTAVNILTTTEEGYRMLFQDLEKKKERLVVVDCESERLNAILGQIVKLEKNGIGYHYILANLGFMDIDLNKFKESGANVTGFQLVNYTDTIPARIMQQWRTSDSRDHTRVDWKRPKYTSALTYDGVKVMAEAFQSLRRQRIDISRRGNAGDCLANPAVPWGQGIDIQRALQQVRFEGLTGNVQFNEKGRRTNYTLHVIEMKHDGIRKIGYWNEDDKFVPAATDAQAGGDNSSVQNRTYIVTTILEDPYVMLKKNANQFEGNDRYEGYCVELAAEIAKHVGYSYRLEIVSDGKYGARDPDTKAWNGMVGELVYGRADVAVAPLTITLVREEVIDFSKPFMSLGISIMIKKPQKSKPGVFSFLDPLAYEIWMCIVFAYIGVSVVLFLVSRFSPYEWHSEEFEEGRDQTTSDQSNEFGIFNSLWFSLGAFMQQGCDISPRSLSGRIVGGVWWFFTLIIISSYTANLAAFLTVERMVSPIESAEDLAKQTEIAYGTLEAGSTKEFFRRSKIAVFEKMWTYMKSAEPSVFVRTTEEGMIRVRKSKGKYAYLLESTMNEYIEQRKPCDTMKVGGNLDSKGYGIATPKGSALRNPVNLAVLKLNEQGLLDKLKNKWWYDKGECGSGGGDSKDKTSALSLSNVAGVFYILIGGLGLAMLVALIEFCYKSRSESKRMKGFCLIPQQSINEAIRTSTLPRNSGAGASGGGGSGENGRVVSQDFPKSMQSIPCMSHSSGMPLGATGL
Assay: Inhibition of rat recombinant GluA1 expressed in Xenopus oocytes assessed as inhibition of glutamate-induced channel current at holding potential of -80 mV by two-electrode voltage clamp technique
quantity_measured: IC50 (µM)
Answers are plain numbers, in µM.

item_smiles: NCCCNCCCCNCCCNCCCN(O)CCCNC(=O)Cc1c[nH]c2ccccc12
measure_unit: µM
readout_number: 0.011
--
item_smiles: C[N+](C)(CCCC[C@H](N)C(=O)NCCCCCNC(=O)[C@H](CC(N)=O)NC(=O)Cc1c[nH]c2cccc(O)c12)CCCNC(=O)[C@@H](N)CCCNC(=N)N
measure_unit: µM
readout_number: 0.123
--
item_smiles: N=C(N)NCCC[C@H](N)C(=O)NCCCNCCCC[C@H](N)C(=O)NCCCCCNC(=O)[C@H](CC(N)=O)NC(=O)Cc1c[nH]c2cccc(O)c12
measure_unit: µM
readout_number: 0.015

IC50 reported for this compound CN(CCCC[C@H](N)C(=O)NCCCCCNC(=O)[C@H](CC(N)=O)NC(=O)Cc1c[nH]c2cccc(O)c12)CCCNC(=O)[C@@H](N)CCCNC(=N)N : 0.052

---

Target: Glutamate NMDA receptor; Grin1/Grin2a (Rattus norvegicus) (UniProt P35439+Q00959)
Assay: Inhibition of rat recombinant GluN1/2A expressed in Xenopus oocytes assessed as inhibition of glutamate/glycine-evoked channel current at 100 nM at holding potential of -80 mV by two-electrode voltage clamp technique
Type: cell-based
quantity_measured: inhibition

Known results for compounds:
item_smiles: N=C(N)NCCC[C@H](N)C(=O)NCCCNCCCC[C@H](N)C(=O)NCCCCCNC(=O)[C@H](CC(N)=O)NC(=O)Cc1c[nH]c2ccccc12
inhibition: < 20%

item_smiles: CN(CCCC[C@H](N)C(=O)NCCCCCNC(=O)[C@H](CC(N)=O)NC(=O)Cc1c[nH]c2cccc(O)c12)CCCNC(=O)[C@@H](N)CCCNC(=N)N
inhibition: < 20%

inhibition reported for this compound N=C(N)NCCC[C@H](N)C(=O)NCCCNCCCC[C@H](N)C(=O)NCCCCCNC(=O)[C@H](CC(N)=O)NC(=O)Cc1c[nH]c2cccc(O)c12 : < 20%

Hello, the source for this data is ChEMBL document CHEMBL3286218, in case you need it.
